- Target Entity: CYP2D6 (Homo sapiens)
- Method: CYP phenotyping, CYP bactosomes
- Test Parameters: E. coli CYPEX membranes, 100 pmol/mL CYP
For each entry below, report its intrinsic clearance, CYP isoform 2D6 value.
Write down the numeric answer in μL/min/nmol CYP and omit the unit.

Per the records, this compound ( CN(C)CCc1c[nH]c2ccccc12 [DMT in SPL028ii] ) has intrinsic clearance, CYP isoform 2D6 equal to 803

Please fill in: intrinsic clearance, CYP isoform 2D6 reported for CN(C)CCc1c[nH]c2ccccc12 [DMT in SPL028i] = 687

Briefly, intrinsic clearance, CYP isoform 2D6 measured for [2H]C([2H])(Cc1c[nH]c2ccccc12)N(C)C [SPL028ii] : 801

Entry under test: CN(C)CCc1c[nH]c2ccccc12 [SPL026, N,N-dimethyltryptamine, reference compound] . Its intrinsic clearance, CYP isoform 2D6 was 801

Record summary for [2H]C([2H])(Cc1c[nH]c2ccccc12)N(C)C [SPL028i] : reported intrinsic clearance, CYP isoform 2D6 = 793

----------
- Tested on: mouse (male CD-1) hepatocytes
- Method: In vitro mouse hepatocytic intrinsic clearance
- Test Parameters: mouse CD-1 hepatocytes 0.367 million cells/mL, 5 μM (Table 8)
Assay Endpoint: w Intrinsic clearance (μL/min/million cells)
The figure you give is taken to be in μL/min/million cells; do not add the unit.

Recorded w Intrinsic clearance (compound [2H]C([2H])(Cc1c[nH]c2ccccc12)N(C)C [SPL028vi] ): 114.0

Measured w Intrinsic clearance of [2H]C([2H])(Cc1c[nH]c2ccccc12)N(C)C [SPL028v] : 117.7

Record [2H]C([2H])(Cc1c[nH]c2ccccc12)N(C)C [SPL028iv] . Reported w Intrinsic clearance: 106.9

In plain terms, [2H]C([2H])(Cc1c[nH]c2ccccc12)N(C)C [SPL028iii] has a documented w Intrinsic clearance of 106.2

Record [2H]C([2H])(Cc1c[nH]c2ccccc12)N(C)C [SPL028i] . Reported w Intrinsic clearance: 97.4

Sample [2H]C([2H])(Cc1c[nH]c2ccccc12)N(C)C [SPL028ii] ; w Intrinsic clearance observed: 102.7

----------
- Target Entity: CYP2D6 (Homo sapiens, UniProt P10635)
- Sequence (P10635 whole entry): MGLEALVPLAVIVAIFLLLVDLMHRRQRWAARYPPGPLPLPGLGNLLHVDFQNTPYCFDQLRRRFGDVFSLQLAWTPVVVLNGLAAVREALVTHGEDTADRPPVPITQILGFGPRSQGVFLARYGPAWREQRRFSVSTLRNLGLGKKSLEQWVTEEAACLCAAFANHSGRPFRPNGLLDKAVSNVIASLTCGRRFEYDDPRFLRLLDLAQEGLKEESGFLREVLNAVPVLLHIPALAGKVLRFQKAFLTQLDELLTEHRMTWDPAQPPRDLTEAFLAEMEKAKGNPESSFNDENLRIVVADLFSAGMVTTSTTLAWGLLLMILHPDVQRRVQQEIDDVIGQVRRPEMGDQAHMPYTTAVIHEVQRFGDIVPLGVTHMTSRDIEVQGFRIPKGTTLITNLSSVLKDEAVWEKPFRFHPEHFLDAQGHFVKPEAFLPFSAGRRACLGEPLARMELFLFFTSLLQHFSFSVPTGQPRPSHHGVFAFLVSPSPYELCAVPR
- Method: CYP phenotyping, CYP bactosomes
- Test Parameters: E. coli CYPEX membranes, 100 pmol/mL CYP
Field: half-life, CYP isoform 2D6. Provide a value for each of the compounds that follow.
# value in min; strip the unit string

compound CN(C)CCc1c[nH]c2ccccc12 [DMT in SPL028ii] , half-life, CYP isoform 2D6 observed: 9

half-life, CYP isoform 2D6 in this record for [2H]C([2H])(Cc1c[nH]c2ccccc12)N(C)C [SPL028ii] : 9

Documented half-life, CYP isoform 2D6 of CN(C)CCc1c[nH]c2ccccc12 [DMT in SPL028i] : 10

The reported value for [2H]C([2H])(Cc1c[nH]c2ccccc12)N(C)C [SPL028i] in terms of half-life, CYP isoform 2D6 is 9

----------
- Tested on: human (mixed gender) hepatocytes
- Method: In vitro intrinsic clearance in human hepatocytes with and without MAO-A/B inhibitor combination (first experiment)
- Test Parameters: human hepatocytes, with MAO-A/B inhibitor combination (Table 5)
Rule: Fulfilled for Intrinsic clearance, with inhibitors not less than 8 μL/min/million cells, Not fulfilled for anything less.

Is the recorded value of Intrinsic clearance, with inhibitors equal to or greater than 8 μL/min/million cells for this compound? CN(C)CCc1c[nH]c2ccccc12 [SPL026, N,N-dimethyltryptamine, reference compound] Fulfilled

Does [2H]C([2H])(Cc1c[nH]c2ccccc12)N(C)C [SPL028ii] have a reported Intrinsic clearance, with inhibitors of at least 8 μL/min/million cells? Fulfilled

Is it the case that [2H]C([2H])(Cc1c[nH]c2ccccc12)N(C)C [SPL028v] has Intrinsic clearance, with inhibitors reaching or exceeding 8 μL/min/million cells? Fulfilled

State whether the measured Intrinsic clearance, with inhibitors reaches 8 μL/min/million cells, counting equality as reaching it, for [2H]C([2H])(Cc1c[nH]c2ccccc12)N(C)C [SPL028i] Not fulfilled

Is it the case that [2H]C([2H])(Cc1c[nH]c2ccccc12)N(C)C [SPL028iv] has Intrinsic clearance, with inhibitors reaching or exceeding 8 μL/min/million cells? Not fulfilled

# check: Intrinsic clearance, with inhibitors of [2H]C([2H])(Cc1c[nH]c2ccccc12)N(C)C [SPL028iii] is greater than or equal to 8 μL/min/million cells Not fulfilled

Assess whether reported Intrinsic clearance, with inhibitors for NCc1ccccc1 [Benzylamine, reference compound] sits at 8 μL/min/million cells or higher. Not fulfilled

Given [2H]C([2H])(Cc1c[nH]c2ccccc12)N(C)C [SPL028vi] , state whether its Intrinsic clearance, with inhibitors is at least 8 μL/min/million cells. Fulfilled

Given NCCc1c[nH]c2ccc(O)cc12 [Serotonin, reference compound] , state whether its Intrinsic clearance, with inhibitors is at least 8 μL/min/million cells. Fulfilled

----------
- Target Entity: CYP2C19 (Homo sapiens)
- Sequence (P33261 whole entry): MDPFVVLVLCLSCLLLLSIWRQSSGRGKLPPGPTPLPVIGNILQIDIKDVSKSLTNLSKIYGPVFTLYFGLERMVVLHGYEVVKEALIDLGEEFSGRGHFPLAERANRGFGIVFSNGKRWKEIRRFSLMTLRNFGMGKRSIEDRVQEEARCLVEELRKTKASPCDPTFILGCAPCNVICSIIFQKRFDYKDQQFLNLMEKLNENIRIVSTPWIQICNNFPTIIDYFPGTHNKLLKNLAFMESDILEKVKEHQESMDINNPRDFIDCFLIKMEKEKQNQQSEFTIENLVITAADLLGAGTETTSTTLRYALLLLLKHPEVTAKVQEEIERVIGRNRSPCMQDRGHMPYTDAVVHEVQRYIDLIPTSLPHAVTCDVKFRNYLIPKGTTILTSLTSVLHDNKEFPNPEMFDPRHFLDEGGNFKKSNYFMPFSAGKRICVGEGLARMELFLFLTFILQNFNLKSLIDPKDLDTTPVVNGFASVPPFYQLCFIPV
- Method: CYP phenotyping, CYP bactosomes
- Test Parameters: scaled by estimated CYP abundance in human liver microsomes (0.009 nmol CYP/mg)
Provide the recorded projected scaled intrinsic clearance, CYP isoform 2C19 for the entries that follow.

Short answer for [2H]C([2H])(Cc1c[nH]c2ccccc12)N(C)C [SPL028ii] : projected scaled intrinsic clearance, CYP isoform 2C19 was 0.4 μl/min/mg microsomal protein

Lab book: projected scaled intrinsic clearance, CYP isoform 2C19 of CN(C)CCc1c[nH]c2ccccc12 [DMT in SPL028i] noted as 0.4 μl/min/mg microsomal protein

projected scaled intrinsic clearance, CYP isoform 2C19 for CN(C)CCc1c[nH]c2ccccc12 [SPL026, N,N-dimethyltryptamine, reference compound] is 0.3 μl/min/mg microsomal protein

projected scaled intrinsic clearance, CYP isoform 2C19 reading for CN(C)CCc1c[nH]c2ccccc12 [DMT in SPL028ii] : 0.4 μl/min/mg microsomal protein

# projected scaled intrinsic clearance, CYP isoform 2C19 of [2H]C([2H])(Cc1c[nH]c2ccccc12)N(C)C [SPL028i] = 0.3 μl/min/mg microsomal protein

----------
- System: mouse (male CD-1) hepatocytes
- Method: In vitro mouse hepatocytic intrinsic clearance
- Test Parameters: mouse CD-1 hepatocytes 0.367 million cells/mL, 5 μM (Table 8)
Assay Endpoint: w Half-life (min)
Please give a number only; it is taken to be in min.

Quick note, w Half-life for [2H]C([2H])(Cc1c[nH]c2ccccc12)N(C)C [SPL028iii] landed at 17.9

The molecule identified as [2H]C([2H])(Cc1c[nH]c2ccccc12)N(C)C [SPL028iv] registered its w Half-life at 17.7

Notebook: [2H]C([2H])(Cc1c[nH]c2ccccc12)N(C)C [SPL028vi] , w Half-life read as 16.6

For record [2H]C([2H])(Cc1c[nH]c2ccccc12)N(C)C [SPL028v] the listed w Half-life is 16.1

Lab note: [2H]C([2H])(Cc1c[nH]c2ccccc12)N(C)C [SPL028ii] gave w Half-life of 18.4

For [2H]C([2H])(Cc1c[nH]c2ccccc12)N(C)C [SPL028i] the molecule record lists w Half-life as 19.4

----------
- Tested on: human (mixed gender) hepatocytes
- Method: In vitro intrinsic clearance in human hepatocytes with and without MAO-A/B inhibitor combination (first experiment)
- Test Parameters: human hepatocytes, with MAO-A/B inhibitors (Table 4; unit given only in Table 5)
I'd be grateful if you could share measured Half-life, with inhibitors for these entries.
Return type: number; implicit unit h.

response.value for [2H]C([2H])(Cc1c[nH]c2ccccc12)N(C)C [SPL028iv] (field: Half-life, with inhibitors) = 2.8528

response.value for CN(C)CCc1c[nH]c2ccccc12 [SPL026, N,N-dimethyltryptamine, reference compound] (field: Half-life, with inhibitors) = 1.601

For NCc1ccccc1 [Benzylamine, reference compound] the molecule record lists Half-life, with inhibitors as 7.6667

Recorded Half-life, with inhibitors (molecule [2H]C([2H])(Cc1c[nH]c2ccccc12)N(C)C [SPL028i] ): 2.8292

What the record says about [2H]C([2H])(Cc1c[nH]c2ccccc12)N(C)C [SPL028iii] : Half-life, with inhibitors is 3.16

----------
- Target Entity: CYP2C8 (Homo sapiens)
- Sequence (P10632 1-490): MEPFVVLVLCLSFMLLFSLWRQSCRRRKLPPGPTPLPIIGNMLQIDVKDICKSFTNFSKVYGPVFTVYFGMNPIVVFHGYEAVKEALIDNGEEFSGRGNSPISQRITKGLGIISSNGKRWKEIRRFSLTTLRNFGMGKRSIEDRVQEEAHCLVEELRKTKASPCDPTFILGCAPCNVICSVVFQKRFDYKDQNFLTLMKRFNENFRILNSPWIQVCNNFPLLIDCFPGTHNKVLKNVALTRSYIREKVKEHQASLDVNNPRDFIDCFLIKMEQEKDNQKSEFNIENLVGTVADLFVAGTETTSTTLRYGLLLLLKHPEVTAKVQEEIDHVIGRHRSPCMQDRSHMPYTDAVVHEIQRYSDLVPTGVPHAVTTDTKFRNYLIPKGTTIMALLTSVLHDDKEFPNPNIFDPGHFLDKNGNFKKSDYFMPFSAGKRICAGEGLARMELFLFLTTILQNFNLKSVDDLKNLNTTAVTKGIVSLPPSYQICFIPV
- Method: in vitro
- Test Parameters: human, recombinant enzyme, pH 7.4
Assay Endpoint: half-life (h)
# number only, unit h dropped from output

Query CC(C)(O)c1ccccc1CC[C@@H](SCC1(CC(=O)O)CC1)c1cccc(/C=C/c2ccc3ccc(Cl)cc3n2)c1 [Montelukast, reference compound] yields half-life of 1.03

Values were extracted from patent US11773062B2.
